# Test system: L1210
# ASSAY_OVERVIEW: Antiproliferative activity against mouse L1210 cells after 72 hrs by MTT assay
# Type: functional, cell-based
# CONDITION_INFO: L1210, 72 h
ASSAY_METRIC: IC50

Answered cases to consult:
{"COMPOUND": "COc1cc(/C(=C/c2cccc([N+](=O)[O-])c2)C(C)O)cc(OC)c1OC (stereo not drawn)", "MEASURED_TARGET": "L1210", "ASSAY_METRIC": "IC50", "OBSERVED_MEASUREMENT": "> 100 µM"}
{"COMPOUND": "COc1ccc(OC)c(/C=C(/c2cc(OC)c(OC)c(OC)c2)C(C)O)c1 (stereo not drawn)", "MEASURED_TARGET": "L1210", "ASSAY_METRIC": "IC50", "OBSERVED_MEASUREMENT": "> 100 µM"}

Next up:
Any idea what its IC50 is? The compound is COc1cc(/C(=C/c2ccc(Cl)cc2)C(C)O)cc(OC)c1OC (stereo not drawn)
> 100 µM

====

The reader will find reported IC50 values listed item by item below.
# System: L1210
# ASSAY_OVERVIEW: Antiproliferative activity against mouse L1210 cells after 72 hrs by MTT assay
# Format: functional, cell-based
# CONDITION_INFO: L1210, 72 h

{"COMPOUND": "COc1cc(/C(=C/c2ccc([N+](=O)[O-])cc2)C(C)O)cc(OC)c1OC (stereo not drawn)", "IC50": "> 100 µM"}
{"COMPOUND": "COc1cc(/C(=C/c2ccc(Br)cc2)C(C)O)cc(OC)c1OC (stereo not drawn)", "IC50": "> 100 µM"}

Next up:
Any idea what its IC50 is? The compound is COc1cc(/C(=C/c2ccccc2)C(C)O)cc(OC)c1OC (stereo not drawn)
> 100 µM
